# study_system: T1, human PD-L1-His (Sino Biological, Cat #10084-H08H) (human, UniProt Q9NZQ7 19-238)
# T1 construct: Bought protein; also called human PD-L1 ECD-His; recombinant human PD-L1-His protein; not shown: His tag
# T1 sequence (Q9NZQ7 19-238): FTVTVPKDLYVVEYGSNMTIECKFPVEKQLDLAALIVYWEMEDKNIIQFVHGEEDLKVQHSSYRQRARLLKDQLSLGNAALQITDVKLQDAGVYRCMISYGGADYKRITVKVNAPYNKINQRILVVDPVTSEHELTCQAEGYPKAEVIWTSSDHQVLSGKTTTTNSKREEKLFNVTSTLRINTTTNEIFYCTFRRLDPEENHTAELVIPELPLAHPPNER
# measurement_notes: ELISA, coated human PD-L1-His
Some binders, each annotated with its measured pEC50.
# pEC50 = -log10(concentration in molar units)

Example entries begin here.
{"columns": ["binder", "measured_property", "numeric_result"],
 "data": [
  ["55H3/76D6 (antibody, human IgG1, V domains shown) VH: QEQLEESGGGLVQPEGSLTLTCTVSGFSFSGDYYMSWVRQAPGKGLEWVASIYTGSLNSYYATWAKGRFTISLTSSTTVTLQMTSLTAADTATYFCARRNKNADYGHFDLWGPGTLVTVSS VL: YDMTQTPASVEVAVGGTVTIKCQASESINDRLAWYQQKPGQPPKLLIYAASTLASGVPSRFRGSGSGTDFTLTISDLECADAATYYCQQGWTVSSLDNAFGGGTEVVAM", "pEC50", 10.70],
  ["33H7 (antibody, human IgG1, V domains shown) VH: QEQLVESGGGLVQPEGSLTVTCTASGFDLSRYFYMSWVRQAPGKGLEWIASISTGSDITDYASWAKGRFTISKTSSTTVTLQMTTLTAADTAIYFCARWTSGGGGFGLWGPGTLVTVSS VL: QVLTQTASPVSAAVGGTVTLNCQSSQSIYNNYLSWYQQRAGQPPKLLIYSTATLASGVPSRFKGSGSGTQFTLTISEIQCEDAATYYCQGYYSGYIWTFGGGTEVVVK", "pEC50", 10.77]
]}

Now examine the next entry.
The binder listed as 57F11 (antibody, human IgG1, V domains shown) VH: QEHLEESGGGLVQPEGALTLTCTASGFSFSGDYYMSWVRQAPGKGLEWIASIYTGSLNTYYATWAKGRFTISIASSTTVTLQVTSLTAADTATYFCARRTKNGDYGYFDLWGPGTLVTVSS VL: YDMTQTPASVEVAVGGTVTIKCQASQSINDRLAWYQQKPGQPPKLLIYAASTLASGVPSRFKGSGSGTEFTLTISDLECADAATYYCQQGWTVSSLENAFGGGTEVVAK has a reported pEC50 of 10.67
